- subjectOfTest: human S1P1 receptor (Homo sapiens (Human))
- Sequence (P21453 whole entry): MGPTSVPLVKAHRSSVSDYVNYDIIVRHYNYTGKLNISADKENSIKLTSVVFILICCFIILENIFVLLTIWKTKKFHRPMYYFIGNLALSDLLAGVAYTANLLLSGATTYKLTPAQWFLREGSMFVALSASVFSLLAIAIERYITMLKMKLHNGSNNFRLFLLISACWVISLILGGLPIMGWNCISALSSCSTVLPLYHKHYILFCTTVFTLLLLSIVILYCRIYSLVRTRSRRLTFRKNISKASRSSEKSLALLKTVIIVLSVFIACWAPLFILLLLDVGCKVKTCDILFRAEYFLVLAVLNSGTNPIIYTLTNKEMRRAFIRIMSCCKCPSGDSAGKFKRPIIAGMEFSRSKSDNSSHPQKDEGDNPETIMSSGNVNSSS
- experimentDescription: GTP γ35S binding assay
- testParameters: S1P1 receptor from GTP γ35S; membranes of cells stably expressing the S1P1 receptor
Each entry below carries its reported pEC50.
Just so you know, pEC50 here is -log10 of the concentration in molar units; reply with that number alone.

> print(dat)
                                        mol                             subjectoftest  assayvalue
1  CCCc1c(OC)ccc2cc(C(=O)Nc3ccncc3Br)c(=O)oc12  human S1P1 receptor (Homo sapiens (Human))        7.72
2  CCCc1c(OC)ccc2cc(C(=O)Nc3ccc(NC(=O)[C@H](N)CCC(=O)O)cc3C)c(=O)oc12  human S1P1 receptor (Homo sapiens (Human))        8.51
3  CCCc1c(OC)ccc2cc(C(=O)Nc3ccc(S(N)(=O)=O)cc3Br)c(=O)oc12  human S1P1 receptor (Homo sapiens (Human))        8.46

Moving on to another molecule below.
Task: Fill in: pEC50 of CCCc1c(OC)ccc2cc(C(=O)Nc3ccccc3Br)c(=O)oc12 is ___
Output: 7.58
